Test system: c-Abl (mouse);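 further: 11-residue human phosphosite peptides and single-mutation variants displayed on the E. coli surface, counted by deep sequencing, each peptide's frequency after selection divided by its frequency in the unselected input library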;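 further: frequency after pTyr selection over input frequency; kinase dosed for 20-30% of maximal phosphorylation in three min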
MEASUREMENT DESCRIPTION: phosphorylation enrichment, bacterial display (enrichment ratio); higher = better substrate or ligand; peptides without Tyr show the background
Readings of phosphorylation enrichment for the listed sequences

[
  {
    "SEQ STRING": "CTTFHYNYMCN [TP53_Y234_I232F]",
    "phosphorylation enrichment": 0.955
  },
  {
    "SEQ STRING": "CTTIHYMYMCN [TP53_Y234_N235M]",
    "phosphorylation enrichment": 0.681
  },
  {
    "SEQ STRING": "AEVIWYKGDEV",
    "phosphorylation enrichment": 1.15
  },
  {
    "SEQ STRING": "PQGVSYIYTID [DCX_Y103_R102S]",
    "phosphorylation enrichment": 1.32
  },
  {
    "SEQ STRING": "IITVHYVLEES [RYR2_Y4559_A4556T]",
    "phosphorylation enrichment": 0.794
  },
  {
    "SEQ STRING": "DLDTDYGSGFP [RNASEH2A_Y206_YF]",
    "phosphorylation enrichment": 0.673
  },
  {
    "SEQ STRING": "NKFTTYLPRLP [C9orf24_Y126_YF]",
    "phosphorylation enrichment": 0.482
  },
  {
    "SEQ STRING": "VVTFSYKPAGN [RBL2_Y544_P547A]",
    "phosphorylation enrichment": 0.605
  },
  {
    "SEQ STRING": "WHYTFYNELRV [ACTC1_Y93_H90Y]",
    "phosphorylation enrichment": 0.979
  },
  {
    "SEQ STRING": "MHRRQYELLGG [GNAS_Y391_L388R]",
    "phosphorylation enrichment": 0.416
  },
  {
    "SEQ STRING": "PFRKLYESVKK [MKI67_Y241_W238R]",
    "phosphorylation enrichment": 1
  },
  {
    "SEQ STRING": "TLKVGYKEKQR [EPHA3_Y659_T660K]",
    "phosphorylation enrichment": 0.547
  },
  {
    "SEQ STRING": "IHETTYNSIKK [ACTA1_Y281_M285K]",
    "phosphorylation enrichment": 0.455
  },
  {
    "SEQ STRING": "KPLMPSMRYSR [SMARCE1_Y73_Y73S]",
    "phosphorylation enrichment": 0.49
  }
]

* * *

ASSAY TARGET: SHP2-C SH2;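 further: peptide library displayed on the E. coli surface as eCPX fusions, selected cells deep-sequenced, score is each peptide's frequency after selection divided by its frequency in the input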
MEASUREMENT DESCRIPTION: SH2 binding enrichment of the phosphorylated peptide, bacterial display (enrichment ratio); higher = better substrate or ligand; peptides without Tyr show the background
Readings of SH2 binding enrichment for the listed sequences

[
  {
    "SEQ STRING": "WEPFGYAVTRC [PTPRT_Y412]",
    "SH2 binding enrichment": 0.589
  },
  {
    "SEQ STRING": "GYRVYYTPDSR [PTPRF_Y451]",
    "SH2 binding enrichment": 0.977
  },
  {
    "SEQ STRING": "YQLPYYNTVPS [BMPR1A_Y458_M460T]",
    "SH2 binding enrichment": 1.1
  },
  {
    "SEQ STRING": "FRTGHYLCNAC [GATA1_Y223_D218Y_YF]",
    "SH2 binding enrichment": 1.07
  },
  {
    "SEQ STRING": "IPVNGYQPVPA [ROR2_Y824_V819I]",
    "SH2 binding enrichment": 0.692
  },
  {
    "SEQ STRING": "GLAKGYIDPET [CSNK1G2_Y195_E194G]",
    "SH2 binding enrichment": 0.922
  },
  {
    "SEQ STRING": "VVTFSYKPAGN [RBL2_Y544_P547A]",
    "SH2 binding enrichment": 0.984
  },
  {
    "SEQ STRING": "PSGPMYRGAVP [ASAH1_Y43_T42M]",
    "SH2 binding enrichment": 0.842
  },
  {
    "SEQ STRING": "IQKKYYRAILE [CHD7_Y1218]",
    "SH2 binding enrichment": 0.636
  },
  {
    "SEQ STRING": "IDSTPYGQWYE [RPS8_Y109_R110G]",
    "SH2 binding enrichment": 0.607
  },
  {
    "SEQ STRING": "SLGKGYSVGGC [MC4R_Y35_D37V]",
    "SH2 binding enrichment": 0.867
  },
  {
    "SEQ STRING": "VDGSLYKTHPQ [HK1_Y417]",
    "SH2 binding enrichment": 0.596
  },
  {
    "SEQ STRING": "AKKVFYVNETR [SHH_Y253_I255N]",
    "SH2 binding enrichment": 0.814
  },
  {
    "SEQ STRING": "GRFSGYKSKHG [EPHA3_Y570_C568S]",
    "SH2 binding enrichment": 0.631
  },
  {
    "SEQ STRING": "KPMDTYYDSTR [DYNC2H1_Y2230]",
    "SH2 binding enrichment": 0.66
  },
  {
    "SEQ STRING": "FGVTLYPNSRE [MEP1A_Y472]",
    "SH2 binding enrichment": 0.858
  },
  {
    "SEQ STRING": "QFKDKYLAKHN [CASK_Y712_YF]",
    "SH2 binding enrichment": 1.3
  },
  {
    "SEQ STRING": "KLPYPYDDPFS [GPX2_Y127]",
    "SH2 binding enrichment": 0.544
  },
  {
    "SEQ STRING": "CTTFHYNYMCN [TP53_Y234_I232F]",
    "SH2 binding enrichment": 1.82
  },
  {
    "SEQ STRING": "KRGVSYILKLA [SERPINB1_Y84_A82V]",
    "SH2 binding enrichment": 0.797
  },
  {
    "SEQ STRING": "ILGRTYFVNHE [NEDD4_Y627_YF]",
    "SH2 binding enrichment": 0.656
  },
  {
    "SEQ STRING": "WGTPEYDSVVA [MAP1A_Y1883_A1881P]",
    "SH2 binding enrichment": 0.612
  },
  {
    "SEQ STRING": "PQGVSYIYTID [DCX_Y103_R102S]",
    "SH2 binding enrichment": 13
  },
  {
    "SEQ STRING": "SCTFTCLLGDR [ETHE1_Y38_Y38C]",
    "SH2 binding enrichment": 0.98
  },
  {
    "SEQ STRING": "KVIDMYLMGCF [GABRB2_Y308_A304V]",
    "SH2 binding enrichment": 0.917
  },
  {
    "SEQ STRING": "GDNNIYVTKII [DLG1_Y349_S347N]",
    "SH2 binding enrichment": 0.687
  },
  {
    "SEQ STRING": "VLSIDYFFPPQ [AR_Y552_P549S_YF]",
    "SH2 binding enrichment": 0.998
  },
  {
    "SEQ STRING": "FADIAYNFHHG [PAH_Y166_R169H_YF]",
    "SH2 binding enrichment": 0.564
  },
  {
    "SEQ STRING": "DEFLEHRRIVG [FAM221A_Y20_Y20H_YF]",
    "SH2 binding enrichment": 0.574
  },
  {
    "SEQ STRING": "SWKRRYFLLRA [APBB1IP_Y331]",
    "SH2 binding enrichment": 0.689
  },
  {
    "SEQ STRING": "AFSTVYKGLWI [EGFR_Y727_G724S]",
    "SH2 binding enrichment": 1.5
  },
  {
    "SEQ STRING": "RHLQEYQDLLN [GFAP_Y349]",
    "SH2 binding enrichment": 1.27
  },
  {
    "SEQ STRING": "HEHKGYNANFC [TGFB2_Y341_P338H]",
    "SH2 binding enrichment": 0.647
  },
  {
    "SEQ STRING": "LISVSYDDWDY [GRIN2A_Y281]",
    "SH2 binding enrichment": 1.39
  },
  {
    "SEQ STRING": "CENCHYPILPL [LCK_Y25_V28L]",
    "SH2 binding enrichment": 1.29
  },
  {
    "SEQ STRING": "WRVISYHVVVW [ATP13A2_Y50_G49S]",
    "SH2 binding enrichment": 0.994
  },
  {
    "SEQ STRING": "APNEFYDGDHD [HDAC3_Y414]",
    "SH2 binding enrichment": 0.632
  },
  {
    "SEQ STRING": "LTNDRYVATLT [IL6ST_Y396_L397V]",
    "SH2 binding enrichment": 0.527
  },
  {
    "SEQ STRING": "LNLDTYQKRLR [PLA2G2D_Y126_R121L]",
    "SH2 binding enrichment": 0.63
  },
  {
    "SEQ STRING": "EGDGVYTLNDE [HP_Y125_N129D]",
    "SH2 binding enrichment": 0.445
  },
  {
    "SEQ STRING": "VQSASYLNDCL [MCM3AP_Y864_A867D]",
    "SH2 binding enrichment": 0.875
  },
  {
    "SEQ STRING": "VNLVLHLSIAK [FBXO15_Y496_Y496H]",
    "SH2 binding enrichment": 0.511
  },
  {
    "SEQ STRING": "ESLSSYRESAK [APOC2_Y47_W48R]",
    "SH2 binding enrichment": 0.795
  },
  {
    "SEQ STRING": "QPSPSYDSSRG [TCF12_Y70]",
    "SH2 binding enrichment": 0.733
  },
  {
    "SEQ STRING": "PLDGEYFTLQV [TP53_Y327_I332V]",
    "SH2 binding enrichment": 0.598
  },
  {
    "SEQ STRING": "RGKLFYQEVPA [METTL11B_Y76_A72G]",
    "SH2 binding enrichment": 0.804
  },
  {
    "SEQ STRING": "SIVEDYRPPFY [ACVRL1_Y421_G416S]",
    "SH2 binding enrichment": 0.622
  },
  {
    "SEQ STRING": "ECKLRYSRKEG [PTPN11_Y263_L262R]",
    "SH2 binding enrichment": 0.679
  },
  {
    "SEQ STRING": "SIKDKYVTALF [KCNH2_Y611_YF]",
    "SH2 binding enrichment": 0.693
  },
  {
    "SEQ STRING": "FNVLQYVVPKV [EIF3A_Y382_E386K]",
    "SH2 binding enrichment": 2.18
  },
  {
    "SEQ STRING": "FGLPRYRWLTH [TSPAN12_Y143_YF]",
    "SH2 binding enrichment": 0.657
  },
  {
    "SEQ STRING": "DLAGRYFALKS [CKB_Y173_YF]",
    "SH2 binding enrichment": 0.688
  },
  {
    "SEQ STRING": "KVITDYYVDMK [MPP4_Y566]",
    "SH2 binding enrichment": 0.704
  },
  {
    "SEQ STRING": "RASGIYYVPKG [APBB1IP_Y340]",
    "SH2 binding enrichment": 0.767
  },
  {
    "SEQ STRING": "DRPASYLDKVR [KRT17_Y98_L95P]",
    "SH2 binding enrichment": 0.664
  },
  {
    "SEQ STRING": "ESLRSYDVMDV [KCNQ2_Y562_P561S]",
    "SH2 binding enrichment": 0.473
  },
  {
    "SEQ STRING": "NVKGIYAVGDV [GSR_Y371]",
    "SH2 binding enrichment": 0.738
  }
]
